- targetOrTestSystem: human DA transporter (Homo sapiens)
- Construct: expressed in transfected cells; host or cells: CHO-K1 cells
- Sequence (Q01959 whole entry): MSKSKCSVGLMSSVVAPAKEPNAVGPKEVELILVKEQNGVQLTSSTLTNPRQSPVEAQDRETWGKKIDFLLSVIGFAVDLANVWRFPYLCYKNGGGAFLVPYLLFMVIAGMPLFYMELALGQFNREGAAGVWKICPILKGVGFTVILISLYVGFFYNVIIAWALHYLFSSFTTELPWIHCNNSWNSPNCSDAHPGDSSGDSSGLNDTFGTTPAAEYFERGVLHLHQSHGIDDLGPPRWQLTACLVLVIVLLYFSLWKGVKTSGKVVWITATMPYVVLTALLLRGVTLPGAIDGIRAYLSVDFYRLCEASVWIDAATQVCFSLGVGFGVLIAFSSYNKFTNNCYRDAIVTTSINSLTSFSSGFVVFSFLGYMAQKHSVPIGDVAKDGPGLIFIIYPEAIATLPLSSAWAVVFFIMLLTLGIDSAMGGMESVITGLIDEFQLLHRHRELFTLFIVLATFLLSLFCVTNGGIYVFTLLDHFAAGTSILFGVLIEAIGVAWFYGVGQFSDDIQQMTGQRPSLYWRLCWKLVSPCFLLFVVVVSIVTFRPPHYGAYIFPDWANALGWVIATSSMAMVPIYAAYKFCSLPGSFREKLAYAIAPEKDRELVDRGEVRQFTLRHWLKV
- protocolNotes: Inhibition of [3H]DA uptake in cells expressing the recombinant human DA transporter
- Format: cell-based
- protocolConditions: 1 μM compound, CHO-K1 cells expressing the DA transporter, read-out: Uptake inh. % at 1 μM DA
Below is a list of entries, each paired with its recorded inhibition at 1 µM value.

compound	inhibition at 1 µM, %
CCN1CC2CC2(c2cc3ccccc3n2C)C1 (stereo not shown)	32
CN1CC2CC2(c2cc3cc(F)ccc3s2)C1 (stereo not shown)	63
CN1CC2CC2(c2cc3ccccc3s2)C1 (stereo not shown)	88
CN1CC2CC2(c2cc3ccc(F)cc3s2)C1 (stereo not shown)	94
CN1CC2CC2(c2ccc3ncccc3c2)C1 (stereo not shown)	12
Cc1ccc(C23CNCC2C3)s1 (stereo not shown)	20
Clc1ccc2scc(C34CNCC3C4)c2c1 (stereo not shown)	13

* * *

- targetOrTestSystem: human NE transporter (Homo sapiens, UniProt P23975)
- Construct: expressed in transfected cells; host or cells: MDCK cells
- Sequence (P23975 whole entry): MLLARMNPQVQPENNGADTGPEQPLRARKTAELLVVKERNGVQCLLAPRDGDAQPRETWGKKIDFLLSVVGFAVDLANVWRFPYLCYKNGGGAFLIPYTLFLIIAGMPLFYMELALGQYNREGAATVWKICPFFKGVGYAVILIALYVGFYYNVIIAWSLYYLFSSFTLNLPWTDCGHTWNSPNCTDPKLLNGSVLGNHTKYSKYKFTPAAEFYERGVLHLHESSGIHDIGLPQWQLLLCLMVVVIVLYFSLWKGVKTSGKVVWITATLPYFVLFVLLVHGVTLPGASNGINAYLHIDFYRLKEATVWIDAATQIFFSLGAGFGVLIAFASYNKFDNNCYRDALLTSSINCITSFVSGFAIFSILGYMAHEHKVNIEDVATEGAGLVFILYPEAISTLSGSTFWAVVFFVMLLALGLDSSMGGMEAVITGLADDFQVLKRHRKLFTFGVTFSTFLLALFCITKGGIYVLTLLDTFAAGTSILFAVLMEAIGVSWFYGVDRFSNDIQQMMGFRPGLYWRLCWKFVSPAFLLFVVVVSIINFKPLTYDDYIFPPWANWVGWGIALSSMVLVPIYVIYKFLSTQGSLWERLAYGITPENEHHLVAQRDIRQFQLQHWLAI
- protocolNotes: Inhibition of [3H]NE uptake in cells expressing the recombinant human NE transporter
- Assay type: cell-based
- protocolConditions: MDCK cells expressing the NE transporter

compound	IC50 (nM)
CN1CC2CC2(c2coc3ccccc23)C1 (centres unmarked)	138
CN1C[C@H]2C[C@]2(c2cc3ccccc3s2)C1	107
c1ccc2sc(C34CNCC3C4)cc2c1 (centres unmarked)	20
CN1CC2CC2(c2cc3ccccc3s2)C1 (centres unmarked)	60
CCN1CC2CC2(c2ccc3c(ccn3C)c2)C1 (centres unmarked)	138
CN1CC2CC2(c2cc3ccccc3o2)C1 (centres unmarked)	400
CN1CC2CC2(c2ccc3c(ccn3C)c2)C1 (centres unmarked)	186
c1ccc2sc([C@@]34CNC[C@H]3C4)cc2c1	99
c1ccc2c(C34CNCC3C4)coc2c1 (centres unmarked)	82
c1ccc2sc([C@]34CNC[C@H]3C4)cc2c1	14
CN1C[C@H]2C[C@@]2(c2cc3ccccc3s2)C1	71

* * *

- targetOrTestSystem: human 5-HT transporter (Homo sapiens, UniProt P31645)
- Construct: expressed in transfected cells; host or cells: HEK 293 cells
- Sequence (P31645 whole entry): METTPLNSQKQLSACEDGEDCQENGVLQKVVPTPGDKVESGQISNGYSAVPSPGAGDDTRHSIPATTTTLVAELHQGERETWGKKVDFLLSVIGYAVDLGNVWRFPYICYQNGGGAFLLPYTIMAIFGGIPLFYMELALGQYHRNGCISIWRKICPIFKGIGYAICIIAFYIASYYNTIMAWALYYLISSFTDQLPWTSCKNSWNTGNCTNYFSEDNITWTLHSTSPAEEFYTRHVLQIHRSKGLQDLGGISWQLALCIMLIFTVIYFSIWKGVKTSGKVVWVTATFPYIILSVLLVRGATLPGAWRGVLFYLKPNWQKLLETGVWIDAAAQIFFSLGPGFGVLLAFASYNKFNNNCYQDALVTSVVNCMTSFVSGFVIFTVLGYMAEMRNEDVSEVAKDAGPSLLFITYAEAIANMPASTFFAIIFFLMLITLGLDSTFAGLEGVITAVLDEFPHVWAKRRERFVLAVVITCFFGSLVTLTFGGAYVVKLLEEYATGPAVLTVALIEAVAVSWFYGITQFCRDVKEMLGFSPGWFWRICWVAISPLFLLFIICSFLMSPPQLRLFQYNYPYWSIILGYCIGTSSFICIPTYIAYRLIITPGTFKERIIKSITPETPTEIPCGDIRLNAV
- protocolNotes: Inhibition of [3H]5-HT uptake in cells expressing the recombinant human 5-HT transporter
- Type: cell-based
- protocolConditions: HEK293, 1 μM compound, HEK 293 cells expressing the 5-HT transporter, read-out: Uptake inh. % at 1 μM 5-HT
inhibition at 1 µM below 60% gives Not fulfilled; inhibition at 1 µM at or above it gives Fulfilled.

compound	targetOrTestSystem	className
Fc1ccc2cc(C34CNCC3C4)sc2c1 (stereo not shown)	human 5-HT transporter (Homo sapiens, UniProt P31645)	Fulfilled
CN1CC2CC2(c2cc3cc(F)ccc3s2)C1 (stereo not shown)	human 5-HT transporter (Homo sapiens, UniProt P31645)	Fulfilled
Clc1ccc2scc(C34CNCC3C4)c2c1 (stereo not shown)	human 5-HT transporter (Homo sapiens, UniProt P31645)	Not fulfilled
c1cnc2ccc(C34CNCC3C4)cc2c1 (stereo not shown)	human 5-HT transporter (Homo sapiens, UniProt P31645)	Fulfilled
c1ccc2sc([C@@]34CNC[C@H]3C4)cc2c1	human 5-HT transporter (Homo sapiens, UniProt P31645)	Fulfilled
CN1CC2CC2(c2ccc3ncccc3c2)C1 (stereo not shown)	human 5-HT transporter (Homo sapiens, UniProt P31645)	Fulfilled
